Test system: SK-BR-3
TEST_PROTOCOL: Inhibition of cells growth by colorimetric (SRB) assay, SK-BR-3
CONDITION_CONTEXT: read-out: LC50 SK-BR-3; SRB assay, 48 hours exposure
Procedure: The finality of these assays is to interrupt the growth of a “in vitro” tumor cell culture by means a continued exhibition of the cells to the sample to be testing. […] Cells are seeded in 96 well microtiter plates, at 5×10^3 cells per well in aliquots of 195 μl medium, and they are allowed to attach to the plate surface by growing in drug free medium for 18 hours. […] Optical densities are read on a automated spectrophotometric plate reader at a single wavelength of 490 nm. […]
Listed here are compounds together with their documented CC50.
QUANTITY_MEASURED: CC50 (µM)

                                   compound  system_name  obs_value
0     Cc1ccc2c(-c3ccnc(N)n3)c3ccnc(N)n3c2n1      SK-BR-3       10.4
1  Nc1nccc(-c2c3cc4ccccc4nc3n3c(N)nccc23)n1 [Compound 19a]      SK-BR-3       8.58
2  Cl.Nc1nccc(-c2c3cc4ccccc4nc3n3c(N)nccc23)n1      SK-BR-3       1.67
3      CCOc1nccc(-c2c3cccnc3n3c(N)nccc23)n1      SK-BR-3       2.79
4     Cl.Nc1nccc2c(-c3ccncn3)c3c(O)ccnc3n12      SK-BR-3       10.2
5    COc1nccc(-c2c3cccnc3n3c(N)nccc23)n1.Cl      SK-BR-3       9.49
6       COc1nccc(-c2c3cccnc3n3c(N)nccc23)n1      SK-BR-3       2.71
7  Cl.Nc1nccc(-c2c3c(N)ccnc3n3c(N)nccc23)n1      SK-BR-3       1.65

----------
Tested on: LoVo
TEST_PROTOCOL: Inhibition of cells growth by colorimetric (SRB) assay, LoVo
CONDITION_CONTEXT: Homo sapiens, LoVo, 48 h, read-out: LOVO LC50, SRB assay, 48 hours exposure
QUANTITY_MEASURED: CC50

                                   compound  obs_value
0    CSc1nccc(-c2c3cccnc3n3c(N)nccc23)n1.Cl    2.59 µM
1  CSc1nccc(-c2c3cc4ccccc4nc3n3c(N)nccc23)n1 [Compound 18a]      17 µM
2  Nc1nccc(-c2c3cccnc3n3c(N)nccc23)n1 [Deoxyvariolin 4, deoxyvariolin B, reference compound]    22.1 µM
3  CSc1nccc(-c2c3c(O)ccnc3n3c(N)nccc23)n1.Cl    27.7 µM
4  Cl.Nc1nccc(-c2c3c(Cl)ccnc3n3c(N)nccc23)n1    2.09 µM
5  CSc1nccc(-c2c3cccnc3n3c(NC(C)=O)nccc23)n1    28.5 µM

----------
Tested on: SK-MEL-28
TEST_PROTOCOL: Inhibition of cells growth by colorimetric (SRB) assay, SK-MEL-28
CONDITION_CONTEXT: read-out: GI50 MEL-28; SRB assay, 48 hours exposure
Here, each record is paired with measured GI50 data.
QUANTITY_MEASURED: GI50 (nM)

>>> print(df.to_string())
                                   compound  quantity_measured  readout_unit  obs_value
0  COc1ccnc2c1c(-c1ccnc(N)n1)c1ccnc(N)n12.Cl               GI50            nM       1100
1     Nc1nccc(-c2c3c(N)ccnc3n3c(N)nccc23)n1               GI50            nM        397
2       COc1nccc(-c2c3cccnc3n3c(N)nccc23)n1               GI50            nM        359
3  Cl.Nc1nccc(-c2c3c(N)ccnc3n3c(N)nccc23)n1               GI50            nM        180
4      CCOc1nccc(-c2c3cccnc3n3c(N)nccc23)n1               GI50            nM        398
5     Cl.Nc1nccc2c(-c3ccncn3)c3c(O)ccnc3n12               GI50            nM       5220
6        Nc1nccc2c(-c3ccncn3)c3c(O)ccnc3n12               GI50            nM       1320
7  Nc1nccc(-c2c3cc4ccccc4nc3n3c(N)nccc23)n1 [Compound 19a]               GI50            nM       1460
8     Cc1ccc2c(-c3ccnc(N)n3)c3ccnc(N)n3c2n1               GI50            nM        721

----------
Tested on: PANC-1
TEST_PROTOCOL: Inhibition of cells growth by colorimetric (SRB) assay, PANC-1
CONDITION_CONTEXT: read-out: PANC-1 LC50; SRB assay, 48 hours exposure
QUANTITY_MEASURED: CC50

                                   compound  obs_value
0  CSc1nccc(-c2c3c(O)ccnc3n3c(N)nccc23)n1 [Compound 95]  ≥ 30.8 µM

----------
System: PANC-1
TEST_PROTOCOL: Inhibition of cells growth by colorimetric (SRB) assay, PANC-1
CONDITION_CONTEXT: Homo sapiens, PANC-1, 48 h, read-out: LC50 PANC-1, SRB assay, 48 hours exposure
Description: The finality of these assays is to interrupt the growth of a “in vitro” tumor cell culture by means a continued exhibition of the cells to the sample to be testing. […] Cells are seeded in 96 well microtiter plates, at 5×10^3 cells per well in aliquots of 195 μl medium, and they are allowed to attach to the plate surface by growing in drug free medium for 18 hours. […] Optical densities are read on a automated spectrophotometric plate reader at a single wavelength of 490 nm. […]
CC50 vs 20 µM: less than gives true; not less than gives false.

>>> print(df.to_string())
                                    compound  category
 0  Nc1nccc2c(-c3ccnc(Oc4ccccc4)n3)c3cccnc3n12 [Compound 78]     false
 1  Nc1nccc2c(-c3cccc([N+](=O)[O-])c3)c3cccnc3n12 [Compound 64]     false
 2  Nc1nccc2c(-c3ccnc(O)n3)c3cccnc3n12 [Compound 80]     false
 3  Nc1nccc(-c2c3c(F)ccnc3n3c(N)nccc23)n1 [Compound 115]     false
 4  Cl.Nc1nccc(-c2c3cc4ccccc4nc3n3c(N)nccc23)n1 [Compound 42]     false
 5  CSc1nccc2c(C(C)C)c3cccnc3n12 [Compound 61]     false
 6  Nc1nccc(-c2c3cccnc3n3ccccc23)n1 [Compound 56]     false
 7  Nc1nccc2c(-c3ccncn3)c3c(O)ccnc3n12 [Compound 100]     false
 8  Nc1nccc2c(-c3ccnc(O)n3)c3c(O)ccnc3n12 [Compound 106]     false
 9  CC(C)c1c2cccnc2n2c(N)nccc12 [Compound 66]     false
10  COc1nccc(-c2c3c(N)ccnc3n3c(N)nccc23)n1 [Compound 88]      true
11  Nc1nccc(-c2c3cc(F)c(Cl)nc3n3c(N)nccc23)n1 [Compound 50]     false
12  Nc1nccc(-c2c3c(N)ccnc3n3c(N)nccc23)n1 [Compound 90]      true

----------
Quick reference for CC50 among some compounds
Tested on: SK-OV-3
TEST_PROTOCOL: Inhibition of cells growth by colorimetric (SRB) assay, SK-OV-3
CONDITION_CONTEXT: read-out: LC50 SKOV-3; SRB assay, 48 hours exposure
Method: The finality of these assays is to interrupt the growth of a “in vitro” tumor cell culture by means a continued exhibition of the cells to the sample to be testing. […] Cells are seeded in 96 well microtiter plates, at 5×10^3 cells per well in aliquots of 195 μl medium, and they are allowed to attach to the plate surface by growing in drug free medium for 18 hours. […] Optical densities are read on a automated spectrophotometric plate reader at a single wavelength of 490 nm. […]
QUANTITY_MEASURED: CC50

>>> df
                                   compound  system_name  obs_value
0      CCOc1nccc(-c2c3cccnc3n3c(N)nccc23)n1      SK-OV-3    3.26 µM
1  Cl.Nc1nccc(-c2c3c(N)ccnc3n3c(N)nccc23)n1      SK-OV-3    24.9 µM
2       COc1nccc(-c2c3cccnc3n3c(N)nccc23)n1      SK-OV-3    34.3 µM
3     Cc1ccc2c(-c3ccnc(N)n3)c3ccnc(N)n3c2n1      SK-OV-3  ≥ 34.3 µM
4     Cl.Nc1nccc2c(-c3ccncn3)c3c(O)ccnc3n12      SK-OV-3  ≥ 33.9 µM
5  Nc1nccc(-c2c3cc4ccccc4nc3n3c(N)nccc23)n1 [Compound 19a]      SK-OV-3    21.8 µM
